assayed.system: Protein kinase C alpha type (Homo sapiens)
measurement.protocol: Displacement of 3[H]PDBu from Protein kinase C alpha C1b domain

structure.notation: CCCC(=O)O[C@@H]1[C@@H](C)[C@]2(O)[C@@H]3C=C(C)C(=O)[C@H]3CC(CO)=C[C@H]2[C@@H]2C(C)(C)[C@]12OC(=O)CCC
Ki [nM]: 13.9

Source of measurements: ChEMBL document CHEMBL1134710
